property measured: melting point

CCCCn1c(C)c2c(c1C)C(=O)N(CC(O)CN1CCN(c3ccc(F)cc3F)CC1)C2=O (centres unmarked) [3e] ... 139 to 141 °C

# next compound below
Quick one: give measured melting point for CCOc1ccccc1N1CCN(CC(O)CN2C(=O)c3c(c(C)n(-c4cccc(Cl)c4)c3C)C2=O)CC1 (centres unmarked) [3g]
129 to 131 °C

* * *

Sequence of the target: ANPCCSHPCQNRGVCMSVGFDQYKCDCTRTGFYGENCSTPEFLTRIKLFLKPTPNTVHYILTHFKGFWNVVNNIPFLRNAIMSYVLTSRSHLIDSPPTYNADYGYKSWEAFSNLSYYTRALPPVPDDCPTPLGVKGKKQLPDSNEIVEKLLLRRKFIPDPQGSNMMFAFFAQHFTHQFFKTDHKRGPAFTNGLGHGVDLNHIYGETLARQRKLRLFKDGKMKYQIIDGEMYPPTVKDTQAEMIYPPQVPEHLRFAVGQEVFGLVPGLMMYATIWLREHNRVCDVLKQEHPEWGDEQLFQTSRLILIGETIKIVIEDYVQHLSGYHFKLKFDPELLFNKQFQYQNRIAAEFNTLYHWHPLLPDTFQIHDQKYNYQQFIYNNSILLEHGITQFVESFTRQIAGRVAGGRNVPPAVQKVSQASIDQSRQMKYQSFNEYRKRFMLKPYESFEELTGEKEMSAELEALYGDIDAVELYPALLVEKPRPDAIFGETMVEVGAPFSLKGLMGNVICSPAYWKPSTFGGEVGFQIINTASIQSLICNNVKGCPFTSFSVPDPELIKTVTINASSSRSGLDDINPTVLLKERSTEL
pIC50: −log10 of the molar value.
property measured: pIC50

Cc1c2c(c(C)n1-c1ccccc1)C(=O)N(CC(O)CN1CCN(c3ccc(F)cc3)CC1)C2=O (stereo not shown) [3c] ... 4.22
CCCCn1c(C)c2c(c1C)C(=O)N(CC(O)CN1CCN(c3ccccc3C#N)CC1)C2=O (stereo not shown) [3f] ... 4.22
Cc1c2c(c(C)n1-c1cccc(Cl)c1)C(=O)N(CC(O)CN1CCN(S(C)(=O)=O)CC1)C2=O (stereo not shown) [3n] ... 4.22
Cc1c2c(c(C)n1-c1cccc(Cl)c1)C(=O)N(CC(O)CN1CCN(c3ncccn3)CC1)C2=O (stereo not shown) [3j] ... 4.22

* * *

Examples of compounds with documented melting point follow.

# example entries with known answers
Cc1c2c(c(C)n1-c1ccccc1)C(=O)N(CC(O)CN1CCN(c3cccc(C(F)(F)F)c3)CC1)C2=O (stereo not shown) ... 135 to 138 °C
CCCCn1c(C)c2c(c1C)C(=O)N(CC(O)CN1CCN(c3ncccn3)CC1)C2=O (stereo not shown) ... 182 to 184 °C
Cc1c2c(c(C)n1-c1ccccc1)C(=O)N(CC(O)CN1CCN(c3ccc(F)cc3)CC1)C2=O (stereo not shown) ... 182 to 184 °C

# next compound below
Quick one: give measured melting point for Cc1c2c(c(C)n1-c1cccc(Cl)c1)C(=O)N(CC(O)CN1CCN(c3ncccn3)CC1)C2=O (stereo not shown)
179 to 181 °C

* * *

Examples of molecules with documented melting point follow.

CCCCn1c(C)c2c(c1C)C(=O)N(CC(O)CN1CCN(c3ccc(C)cc3)CC1)C2=O (stereo not drawn) ... 116 to 118 °C

Quick one: give measured melting point for Cc1c2c(c(C)n1-c1ccccc1)C(=O)N(CC(O)CN1CCN(S(C)(=O)=O)CC1)C2=O (stereo not drawn)
136 to 138 °C

Quick one: give measured melting point for CCCCn1c(C)c2c(c1C)C(=O)N(CC(O)CN1CCN(c3ccccc3C#N)CC1)C2=O (stereo not drawn)
154 to 156 °C
